TARGET: human glucocorticoid receptor-α [GRX] isoform (Homo sapiens, UniProt P04150)
Construct: purchased Ligand Pharmaceuticals (San Diego, Calif.); host or cells: insect SF21 cells (baculovirus)
Sequence (P04150 1-777): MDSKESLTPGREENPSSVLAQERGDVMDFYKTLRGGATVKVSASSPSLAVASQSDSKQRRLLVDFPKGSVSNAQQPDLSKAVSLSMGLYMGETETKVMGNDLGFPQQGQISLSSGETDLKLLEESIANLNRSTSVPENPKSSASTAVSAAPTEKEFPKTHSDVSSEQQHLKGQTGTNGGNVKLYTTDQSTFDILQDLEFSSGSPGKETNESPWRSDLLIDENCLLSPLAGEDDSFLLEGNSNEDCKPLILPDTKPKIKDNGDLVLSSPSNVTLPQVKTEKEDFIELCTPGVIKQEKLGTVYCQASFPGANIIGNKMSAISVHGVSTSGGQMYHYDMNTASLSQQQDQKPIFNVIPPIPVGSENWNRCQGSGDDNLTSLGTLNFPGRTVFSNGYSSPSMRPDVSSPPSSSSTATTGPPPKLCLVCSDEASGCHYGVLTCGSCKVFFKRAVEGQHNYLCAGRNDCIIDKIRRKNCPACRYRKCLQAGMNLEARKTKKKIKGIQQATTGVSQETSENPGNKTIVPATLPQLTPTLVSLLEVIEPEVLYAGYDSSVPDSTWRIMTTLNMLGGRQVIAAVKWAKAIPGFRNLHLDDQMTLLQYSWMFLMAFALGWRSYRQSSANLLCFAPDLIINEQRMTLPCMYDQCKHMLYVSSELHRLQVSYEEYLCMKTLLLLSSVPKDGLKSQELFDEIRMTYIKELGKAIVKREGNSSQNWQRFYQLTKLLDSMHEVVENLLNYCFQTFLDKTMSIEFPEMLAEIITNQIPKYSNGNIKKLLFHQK
PROTOCOL_SUMMARY: Radioligand binding with human glucocorticoid receptor cytosol ([3H]-dexamethasone)
RUN_CONDITIONS: [3H]-Dex competition, 4° C. overnight, Cheng-Prusoff, read-out: Ki (nM) GR
QUANTITY: Ki (nM)
Your answer is read as nM, so omit the unit and give the number.

{"COMPOUND": "C=CCC1Oc2ccccc2-c2c(OC)cc3c(c21)C(C)=CC(C)(C)N3 (stereo not shown) [Example 2]", "UNIT_TEXT": "nM", "Ki": 640}

Ki for C=C1CC(C)(C)Nc2cc(OC)c3c(c21)C(c1cc(Cl)cc(Cl)c1)Oc1ccccc1-3 (stereo not shown) [Example 4] ?
270

Ki for COc1cc2c(c3c1-c1ccccc1OC3c1ccccc1)C(C)=CC(C)(C)N2 (stereo not shown) [Example 1] ?
230

Ki for COc1cc2c(c3c1-c1ccccc1OC3c1cc(Cl)cc(Cl)c1)C(C)=CC(C)(C)N2 (stereo not shown) [Example 3] ?
200

Attribution: patent US6380207B2
